Biological target: Caspase-1 (Homo sapiens)
Sequence (P29466 whole entry): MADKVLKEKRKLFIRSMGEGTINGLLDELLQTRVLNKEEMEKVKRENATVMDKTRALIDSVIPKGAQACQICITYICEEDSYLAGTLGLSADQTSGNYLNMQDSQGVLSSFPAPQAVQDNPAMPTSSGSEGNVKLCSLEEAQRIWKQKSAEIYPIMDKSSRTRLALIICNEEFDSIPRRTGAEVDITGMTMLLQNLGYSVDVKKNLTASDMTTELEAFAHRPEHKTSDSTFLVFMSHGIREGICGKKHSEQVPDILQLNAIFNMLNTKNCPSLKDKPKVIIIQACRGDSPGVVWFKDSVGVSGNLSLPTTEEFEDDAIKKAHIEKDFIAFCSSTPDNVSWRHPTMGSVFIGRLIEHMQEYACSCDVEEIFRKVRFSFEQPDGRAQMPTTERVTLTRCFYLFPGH
METRIC NAME: Ki (µM)

I = CC(=O)N[C@@H](Cc1ccc(O)cc1)C(=O)N[C@H](C(=O)N[C@@H](C)C(=O)N[C@@H](CC(=O)O)C(=O)CCCCCc1ccccc1)C(C)C
II = O=C[C@H](CC(=O)O)NS(=O)(=O)c1ccccc1
III = O=C(O)C[C@H](NC(=O)OCc1ccccc1)C(=O)CCCCCc1ccccc1
IV = Cc1cccc(S(=O)(=O)N[C@H](C=O)CC(=O)O)c1-c1ccccc1
V = O=C(O)C[C@H](NC(=O)OCc1ccccc1)C(=O)CSCCCc1ccccc1
Returns the items ordered by Ki, from maximum to minimum. // list labels; follow requested order III, V, II, IV, I
(III: 119 µM, V: 25 µM, II: 9.4 µM, IV: 1.9 µM, I: 0.011 µM)
